# assayProtocol: Clearance in human hepatocytes assessed per 10^6 cells
# Assay type: ADME, cell-based, Hepatocyte
# assaySetup: read-out: CLH
experimentalReadout: hepatocyte CLint (µL/min/1e6 cells)

[[record]]
molecule = "COc1ccc(-c2ccc3c(N4CCOC[C@@H]4C)nc(N4CCOC[C@@H]4C)nc3n2)cc1CO"
experimentalreadout = "hepatocyte CLint"
boundtype = "="
numericresult = 36.4

[[record]]
molecule = "CNC(=O)c1cccc(-c2ccc3c(N4CCOC[C@@H]4C)nc(N4CCOC[C@@H]4C)nc3n2)c1"
experimentalreadout = "hepatocyte CLint"
boundtype = "<"
numericresult = 4.2

[[record]]
molecule = "CNC(=O)c1cc(-c2ccc3c(N4CCOC[C@@H]4C)nc(N4CCOC[C@@H]4C)nc3n2)ccc1OC"
experimentalreadout = "hepatocyte CLint"
boundtype = "="
numericresult = 14.3

[[record]]
molecule = "COc1ccc(-c2ccc3c(N4CCOC[C@@H]4C)nc(N4CCOC[C@@H]4C)nc3n2)cc1C(N)=O"
experimentalreadout = "hepatocyte CLint"
boundtype = "="
numericresult = 33.2

[[record]]
molecule = "C[C@H]1COCCN1c1nc(N2CCOC[C@@H]2C)c2ccc(-c3cccc(C(=O)NCCO)c3)nc2n1"
experimentalreadout = "hepatocyte CLint"
boundtype = "<"
numericresult = 5.4

[[record]]
molecule = "CNC(=O)c1cc(-c2ccc3c(N4CCOC[C@@H]4C)nc(N4CCOC[C@@H]4C)nc3n2)ccc1OC(F)F"
experimentalreadout = "hepatocyte CLint"
boundtype = "="
numericresult = 14.9

[[record]]
molecule = "COc1ccc(-c2ccc3c(N4CCOC[C@@H]4C)nc(N4CCOC[C@@H]4C)nc3n2)cc1C(=O)N(C)C"
experimentalreadout = "hepatocyte CLint"
boundtype = "="
numericresult = 4.3

[[record]]
molecule = "COc1ccc(-c2ccc3c(N4CCOC[C@@H]4C)nc(N4CCOC[C@@H]4C)nc3n2)cc1C(C)O (some centres undefined)"
experimentalreadout = "hepatocyte CLint"
boundtype = "="
numericresult = 37.8

[[record]]
molecule = "C[C@H]1COCCN1c1nc(N2CCOC[C@@H]2C)c2ccc(-c3ccc4nc[nH]c(=O)c4c3)nc2n1"
experimentalreadout = "hepatocyte CLint"
boundtype = "="
numericresult = 176


====

Measured logD, listed per entry for reference.
# assayProtocol: Lipophilicity, log D of the compound
# Type: physicochemical
# assaySetup: octanol/water
experimentalReadout: logD

[[record]]
molecule = "CNC(=O)c1cccc(-c2ccc3c(N4CCOC[C@@H]4C)nc(N4CCOC[C@@H]4C)nc3n2)c1"
experimentalreadout = "logD"
boundtype = "="
numericresult = 3.16

[[record]]
molecule = "C[C@@H]1CN(c2nc(N3CCOC[C@@H]3C)c3ncc(-c4ccccc4)nc3n2)C[C@H](C)O1"
experimentalreadout = "logD"
boundtype = ">"
numericresult = 4

[[record]]
molecule = "C[C@@H]1CN(c2nc(N3CCOC[C@@H]3C)c3ccc(-c4ccccc4)nc3n2)C[C@H](C)O1"
experimentalreadout = "logD"
boundtype = "="
numericresult = 3.75

[[record]]
molecule = "COc1ccc(-c2ccc3c(N4CCOC[C@@H]4C)nc(N4CCOC[C@@H]4C)nc3n2)cc1CO"
experimentalreadout = "logD"
boundtype = "="
numericresult = 3.23


Reference source for all entries: ChEMBL document CHEMBL2331448
